# Test system: MS2 coat protein
# assayOverview: apparent KD of MS2 coat protein; designed switch direction (-1 OFF switch, 1 ON switch): -1; higher = weaker reporter binding
# experimentalConditions: Eterna round: R95; input ligand: microRNA oligo, concentration not stated
apparent KD of MS2 coat protein: recorded values
All answers are understood in nM, so give the number only.

Known apparent KD of MS2 coat protein results, listed for orientation:
inputSequence | valueType | endpointValue
GCCAGAGCAGGAUAUUCAAUAUCACACAUGAGGAUCACCCAUGUCUGGCGAAAGCUAGAGGGAGAAGGGCUCUGGC [Mat - Exclusion 5 - Eli mod - D97] (puzzle: Exclusion 5) | apparent KD of MS2 coat protein | 38.8
GAUGAGGUAGGAUAUACGAGAAGAUAGGGUAGAUAGAUAACACAUGAGGAUCACCCAUGUAGAAGGACCAGUAG [Mat - Exclusion 2 - Mod of my Tesla design - D72] (puzzle: Exclusion 2) | apparent KD of MS2 coat protein | 32.5
UGGUGGAAGCAGGAUAUGCUUGUAUUAUUGAUUGCAGAAGGGCUAACAUGAGGAUCACCCAUGUAAGAGGUGUU [JR_E6_Sub056] (puzzle: Exclusion 6) | apparent KD of MS2 coat protein | 289
AAAACGUCAGGAUAUACGAAAUAAAAUAAAAUAAAAUAAAAGUAGAAGGGACAUGAGGAUCACCCAUGUAAUAA [Exclusion 4 #1] (puzzle: Exclusion 4) | apparent KD of MS2 coat protein | 26.6

Would you kindly look at the next entry?
Identify measured apparent KD of MS2 coat protein obtained with MS2 coat protein for GCCAGAGCAGGAUAUCUAUAUUAUCACAUGAGGAUCACCCAUGUCCAGCGAAAGCUGGAGGGAGAAGGGCUCUGGC [Fiskers Ex 5 - 26] (puzzle: Exclusion 5) . 76.7

* * *

# System: K4 kissing-loop RNA reporter;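 also: bound reporter read as fluorescence of individual clusters on recovered sequencing chips by microscopy, with normalized cluster intensities fitted with a binding model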
# assayOverview: apparent KD of K4 kissing-loop reporter; higher = weaker reporter binding
# experimentalConditions: Eterna round: R107; input ligand: FMN 200 uM
Tick y if apparent KD of K4 kissing-loop reporter is 100 nM or greater. Tick n if apparent KD of K4 kissing-loop reporter is less than 100 nM.

Please review the entries below; each comes with its answer.
inputSequence | target | answerLabel
AAGCAGUCACUCGAACCCAUCGAAGAUGGGCGAGGACCGGUACGGCCGCCACUCGGAGUGAUGUUCCGCAGACUGCAAAAUAAAA | K4 kissing-loop RNA reporter | y
UGUACCGAGUCAGGAUAUCAUAAUAAAUCCAGUGAUGUUGGAAUAACCAGUACAAAGUACUGGCCUUGAGAAGGGACUUGGUACU [FmnBS 3 #SwitchBubble #StaticStem] | K4 kissing-loop RNA reporter | y
GUUGACAGACUGCAAAACUAGUCAACAGACUAGGAUAUCAGGAAACUGAGAAGGAGUCAAGUUGCAGUGAUGUUGCAAGAAUAAU [KL-SSFMN-A27] | K4 kissing-loop RNA reporter | y
ACGUGCACCAGUGAUGUUGGAAAAUAUGAAGGAGCGGGUGAAAGCCCAGGUAGGUCGCAUAAUAGCACGAGCCACGAAAGUGGCA | K4 kissing-loop RNA reporter | y
AGUGAUAUAUGAGGAUAUGGGAUUGUUAAUGAGUUAGUUUUAGUGUUGUUUGGUUAGUGAUGUUAUUUAGAAGGCGUGAGUGAUG [kuktrmullin] | K4 kissing-loop RNA reporter | n

Attention now turns to another entry.
Threshold query (apparent KD of K4 kissing-loop reporter >= 100 nM) on AUUUUGUUGUCAGGAUAUUAGUAUGGUUUUGGUUUGUUAGUGAUGUUGAUGUUUUGUUUAUGUAUUUAAGAAGGGAUUUAGCGGU [aqaawgumullin] y
